measurement-target: MMP-12 (Homo sapiens, UniProt P39900)
Construct: In regard to MMP-12, catalytic domain(^100Phe˜^263Gly) was amplified with RT-PCR; His-tag; enterokinase digestion-site; made in house
Sequence (P39900 100-263): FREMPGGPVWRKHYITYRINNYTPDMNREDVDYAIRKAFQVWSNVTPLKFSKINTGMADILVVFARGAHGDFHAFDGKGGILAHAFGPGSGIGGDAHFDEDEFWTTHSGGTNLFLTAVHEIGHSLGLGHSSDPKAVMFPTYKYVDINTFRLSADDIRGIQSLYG
measurement-notes: Assay for inhibitory activities on MMPs (fluorogenic MOCAc peptide substrate): MMP-12
Format: biochemical
experimental-parameters: catalytic domain 100Phe-263Gly
quantity-kind: IC50 (µM)

Examples with answers:
# compound, unit-label, IC50
records = [
    ("CC(C)[C@H](NS(=O)(=O)c1ccc(-c2cc(-c3ccc(Cl)cc3)no2)cc1)C(=O)O [Example A-23]", "µM", 0.00086),
    ("CCCc1ccc(-c2cc(-c3ccc(S(=O)(=O)N[C@@H](CC(C)C)C(=O)O)cc3)no2)cc1 [Example C-58]", "µM", 0.000216),
    ("CCCCc1ccc(-c2cc(-c3ccc(S(=O)(=O)N[C@@H](C(=O)O)C(C)C)cc3)no2)cc1 [Example C-17]", "µM", 0.000239),
    ("CC(C)[C@@H](NS(=O)(=O)c1ccc(-c2cc(-c3ccc(C(F)(F)F)cc3)on2)cc1)C(=O)O [Example C-27]", "µM", 0.000316),
    ("CC(C)[C@@H](NS(=O)(=O)c1ccc(-c2cc(-c3ccc(Cl)cc3)on2)cc1)C(=O)O [Example C-20]", "µM", 0.000366),
    ("Cc1ccc(-c2cc(-c3ccc(S(=O)(=O)N[C@H](Cc4ccccc4)C(=O)O)cc3)no2)cc1 [Example C-122]", "µM", 0.000877),
    ("CCC(C)[C@H](NS(=O)(=O)c1ccc(-c2cc(-c3ccc(F)c(F)c3)on2)cc1)C(=O)O (stereo partly drawn) [Example C-108]", "µM", 0.000525),
    ("COc1ccc(-c2cc(-c3ccc(S(=O)(=O)N[C@@H](C(=O)O)C(C)C)cc3)on2)cc1F [Example A-38]", "µM", 0.000908),
    ("O=C(O)C[C@@H](NS(=O)(=O)c1ccc(-c2cc(-c3ccc(Cl)c(F)c3)on2)cc1)C(=O)O [Example C-117]", "µM", 0.000967),
    ("Cc1ccc(-c2cc(-c3ccc(S(=O)(=O)N[C@@H](CC(C)C)C(=O)O)cc3)no2)s1 [Example C-75]", "µM", 0.000677),
]

1 = CC(C)[C@@H](NS(=O)(=O)c1ccc(-c2cc(-c3ccc(Cl)c(F)c3)no2)cc1)C(=O)O [Example A-40]
2 = Cc1ccc(-c2cc(-c3ccc(S(=O)(=O)N[C@@H](CC(C)C)C(=O)O)cc3)no2)cc1 [Example C-54]
3 = CC(C)c1ccc(-c2cc(-c3ccc(S(=O)(=O)N[C@@H](C(=O)O)C(C)C)cc3)no2)cc1 [Example C-15]
## Input List from greatest to least IC50. Answer format: the labels, in the requested order.
## Output 1, 2, 3

---

measurement-target: MMP-2 (Homo sapiens)
Construct: purchased Calbiochem-Novabiochem International, Inc
Sequence (P08253 110-660, species assumed): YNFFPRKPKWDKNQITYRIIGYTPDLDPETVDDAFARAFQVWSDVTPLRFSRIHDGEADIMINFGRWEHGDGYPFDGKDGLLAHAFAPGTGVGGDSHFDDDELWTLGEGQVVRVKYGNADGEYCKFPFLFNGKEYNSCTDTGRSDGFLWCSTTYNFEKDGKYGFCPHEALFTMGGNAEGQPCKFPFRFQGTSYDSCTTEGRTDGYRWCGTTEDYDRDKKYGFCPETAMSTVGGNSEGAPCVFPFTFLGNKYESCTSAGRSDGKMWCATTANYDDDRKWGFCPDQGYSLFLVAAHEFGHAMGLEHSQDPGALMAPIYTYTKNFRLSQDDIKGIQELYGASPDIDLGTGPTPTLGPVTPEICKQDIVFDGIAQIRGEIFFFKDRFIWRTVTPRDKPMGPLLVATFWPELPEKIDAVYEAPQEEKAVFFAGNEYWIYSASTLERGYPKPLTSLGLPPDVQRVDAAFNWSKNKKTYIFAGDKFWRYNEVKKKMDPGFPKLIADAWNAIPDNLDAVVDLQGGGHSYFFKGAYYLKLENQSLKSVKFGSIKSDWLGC
measurement-notes: Assay for inhibitory activities on MMPs (fluorogenic MOCAc peptide substrate): MMP-2
Format: biochemical
experimental-parameters: MMP-2 purchased from Calbiochem-Novabiochem
quantity-kind: IC50 (nM)

# chemical-smiles, measurement-target, numeric-readout
records = [
    ("CC(C)c1ccc(-c2cc(-c3ccc(S(=O)(=O)N[C@@H](C(=O)O)C(C)C)cc3)on2)cc1", "MMP-2 (Homo sapiens)", 0.0767),
]

I = CCc1ccc(-c2cc(-c3ccc(S(=O)(=O)N[C@@H](C(=O)O)C(C)C)cc3)no2)cc1
II = CCCc1ccc(-c2cc(-c3ccc(S(=O)(=O)N[C@@H](C(=O)O)C(C)C)cc3)no2)cc1
## Input Which of these two has the smaller recorded IC50: I or II ? Answer with the label corresponding to your selection.
## Output II
(II: 0.0533 nM, I: 0.0832 nM)

Cited source: patent US7825146B2
